Biological target: human TGR5 (Homo sapiens)
Construct: expressed in transfected cells; host or cells: HEK293
Test: Cell-based TGR5 assay (cAMP generation, HTRF)
Conditions: HEK293 cells stably transfected with human TGR5; cAMP by HTRF; 30 minutes at 37° C.; read-out: pEC50 Human TGR5 (converted)
OBSERVABLE: EC50

Worked set:
{"COMPOUND": "Cc1ccc(SCCCN(CCCS(C)(=O)=O)C(=O)[C@@H](O)[C@@H](O)[C@H](O)[C@@H](O)CO)cc1CNC1(c2cnccc2-c2ccccc2OC2CC2)CC1 [Compound I-544]", "OBSERVABLE": "EC50", "RESULT": "126 to 1000 nM"}
{"COMPOUND": "CN(CCCCNC(=O)N[C@@H](CO)[C@@H](O)[C@H](O)[C@H](O)CO)S(=O)(=O)c1ccc(Cl)c(CNC2(c3cnccc3-c3ccccc3OC3CC3)CC2)c1 [Compound I-472]", "OBSERVABLE": "EC50", "RESULT": "< 100 nM"}
{"COMPOUND": "O=C(CCCCc1cc(Cl)c(COC2(c3cnccc3-c3ccccc3OC3CC3)CC2)cc1Cl)N(Cc1ccccc1)C[C@H](O)[C@@H](O)[C@H](O)[C@H](O)CO [Compound I-126]", "OBSERVABLE": "EC50", "RESULT": "126 to 1000 nM"}
{"COMPOUND": "CC(CCCCNC(=O)NC[C@H](O)[C@@H](O)[C@H](O)[C@H](O)CO)c1ccc(Cl)c(COC2(c3cnccc3-c3ccccc3OC3CC3)CC2)c1 (stereo partly drawn) [Compound I-275]", "OBSERVABLE": "EC50", "RESULT": "< 100 nM"}
{"COMPOUND": "Clc1ccc(Cl)c(COC2(c3cnccc3-c3ccccc3OC3CC3)CCC2)c1 [Compound I-741]", "OBSERVABLE": "EC50", "RESULT": "< 100 nM"}
{"COMPOUND": "CC(=O)N(CCCCSc1ccc(Cl)c(CNC2(c3cnccc3-c3ccccc3OC3CC3)CC2)c1)C[C@H](O)[C@@H](O)[C@H](O)[C@H](O)CO [Compound I-503]", "OBSERVABLE": "EC50", "RESULT": "< 100 nM"}
{"COMPOUND": "CC(=O)N(CCCCCSc1ccc(Cl)c(COC2(c3cnccc3-c3ccccc3OC3CC3)CC2)c1)C[C@H](O)[C@@H](O)[C@H](O)[C@H](O)CO [Compound I-695]", "OBSERVABLE": "EC50", "RESULT": "< 100 nM"}
{"COMPOUND": "Fc1ccccc1-c1ccncc1C1(NCc2cc(Cl)ccc2Cl)CC1 [Compound I-17]", "OBSERVABLE": "EC50", "RESULT": "1260 to 10000 nM"}
{"COMPOUND": "O=S(=O)(c1ccc(Cl)c(COC2(c3cnccc3-c3ccccc3OC3CC3)CC2)c1)N1CCc2nc(O)ccc2C1 [Compound I-734]", "OBSERVABLE": "EC50", "RESULT": "< 100 nM"}
{"COMPOUND": "COc1cc(C)ccc1-c1ccncc1C1(OCc2cc(Cl)ccc2Cl)CC1 [Compound I-774]", "OBSERVABLE": "EC50", "RESULT": "126 to 1000 nM"}

Kindly give each listed record's EC50.
1. CC(CCSc1ccc(Cl)c(COC2(c3cnccc3-c3ccccc3OC3CC3)CC2)c1)C(=O)N(C)C[C@H](O)[C@@H](O)[C@H](O)[C@H](O)CO (stereo partly drawn) [Compound I-689]
2. CCNC(=O)CCN(C[C@H](O)[C@@H](O)[C@H](O)[C@H](O)CO)C(=O)CCCC(C)c1ccc(Cl)c(CNC2(c3cnccc3-c3ccccc3OC3CC3)CC2)c1 (stereo partly drawn) [Compound I-344]

Output line:
1: < 100 nM; 2: 126 to 1000 nM

* * *

Biological target: human TGR5 (Homo sapiens, UniProt Q8TDU6)
Construct: expressed in transfected cells; host or cells: HEK293
Test: Cell-based TGR5 assay (cAMP generation, HTRF)
Details: HEK293 cells stably transfected with human TGR5; cAMP by HTRF; 30 minutes at 37° C.; read-out: pEC50 Human TGR5 (converted)
OBSERVABLE: EC50

Check out these entries, answers already filled in.
{"COMPOUND": "CC(CCCC(=O)NC[C@H](O)[C@@H](O)[C@H](O)[C@H](O)CO)c1ccc(Cl)c(CNC2(c3cnccc3-c3ccccc3OC3CC3)CC2)c1 (stereo partly drawn) [Compound I-316]", "EC50": "< 100 nM"}
{"COMPOUND": "O=C1NCCN1CCN(CCCCSc1ccc(Cl)c(COC2(c3cnccc3-c3ccccc3OC3CC3)CC2)c1)C(=O)[C@@H](O)[C@@H](O)[C@H](O)[C@@H](O)CO [Compound I-517]", "EC50": "< 100 nM"}

Below are some compounds; for each one, tell me its EC50.
1. CNC(=O)CN(C[C@H](O)[C@@H](O)[C@H](O)[C@H](O)CO)C(=O)CCCC(C)c1ccc(C)c(CNC2(c3cnccc3-c3ccccc3OC3CC3)CC2)c1 (stereo partly drawn) [Compound I-360]
2. CC(C)N(C[C@H](O)[C@@H](O)[C@H](O)[C@H](O)CO)C(=O)CCCCc1cc(Cl)c(COC2(c3cnccc3-c3ccccc3OC3CC3)CC2)cc1Cl [Compound I-128]
3. Cc1ccc(C(C)CCCCNC(=O)[C@@H](O)[C@@H](O)[C@H](O)[C@@H](O)CO)cc1COC1(c2cnccc2-c2ccccc2OC2CC2)CC1 (stereo partly drawn) [Compound I-312]

Output line:
["< 100 nM", "< 100 nM", "< 100 nM"]

Input line: // EC50 lookup, key: FC(F)(F)c1ccc(Cl)cc1CNC1(c2cnccc2-c2ccccc2OC2CC2)CC1 [Compound I-30]
Output line: 126 to 1000 nM

* * *

Give EC50 for every item shown.
Target: human TGR5 (Homo sapiens)
Construct: expressed in transfected cells; host or cells: HEK293
Assay: Cell-based TGR5 assay (cAMP generation, HTRF)
Conditions: HEK293 cells stably transfected with human TGR5; cAMP by HTRF; 30 minutes at 37° C.; read-out: pEC50 Human TGR5 (converted)

Examples with answers:
{"CHEMICAL SMILES": "CS(=O)(=O)NCCCCN(CCCSc1ccc(Cl)c(CNC2(c3cnccc3-c3ccccc3OC3CC3)CC2)c1)C(=O)[C@@H](O)[C@@H](O)[C@H](O)[C@@H](O)CO", "RESULT": "< 100 nM"}
{"CHEMICAL SMILES": "O=C(CCCSc1ccc(Cl)c(COC2(c3cnccc3-c3ccccc3OC3CC3)CC2)c1)N(CCS(=O)(=O)N1CCOCC1)C[C@H](O)[C@@H](O)[C@H](O)[C@H](O)CO", "RESULT": "126 to 1000 nM"}

With those in mind, consider the next compound.
Input line: Which EC50 value belongs to `CN(C[C@H](O)[C@@H](O)[C@H](O)[C@H](O)CO)C(=O)CCCCSc1ccc(Cl)c(CNC2(c3cnccc3-c3ccccc3OC3CC3)CC2)c1` ?
Output line: < 100 nM

* * *

Target: human TGR5 (Homo sapiens, UniProt Q8TDU6)
Construct: expressed in transfected cells; host or cells: HEK293
Sequence (Q8TDU6 1-330): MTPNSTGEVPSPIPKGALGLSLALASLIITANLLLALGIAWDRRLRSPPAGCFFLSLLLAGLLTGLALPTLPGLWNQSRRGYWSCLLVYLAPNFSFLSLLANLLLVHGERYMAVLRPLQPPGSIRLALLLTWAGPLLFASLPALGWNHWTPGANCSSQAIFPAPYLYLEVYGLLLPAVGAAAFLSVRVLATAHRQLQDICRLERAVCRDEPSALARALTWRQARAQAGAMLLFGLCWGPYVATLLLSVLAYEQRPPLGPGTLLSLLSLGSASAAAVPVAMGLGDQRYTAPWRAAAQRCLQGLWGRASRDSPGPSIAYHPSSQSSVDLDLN
Assay: Cell-based TGR5 assay (cAMP generation, HTRF)
Settings: HEK293 cells stably transfected with human TGR5; cAMP by HTRF; 30 minutes at 37° C.; read-out: pEC50 Human TGR5 (converted)
Provide the recorded EC50 for the entries that follow.

Would you please look over these solved cases?
{"COMPOUND": "O=C([C@@H](O)[C@@H](O)[C@H](O)[C@@H](O)CO)N(CCCSc1ccc(Cl)c(COC2(c3cnccc3-c3ccccc3OC3CC3)CC2)c1)C1CCS(=O)(=O)CC1", "RESULT": "126 to 1000 nM"}
{"COMPOUND": "O=C(NCCCCC[S+]([O-])c1ccc(Cl)c(COC2(c3cnccc3-c3ccccc3OC3CC3)CC2)c1)[C@@H](O)[C@@H](O)[C@H](O)[C@@H](O)CO (stereo partly drawn)", "RESULT": "< 100 nM"}
{"COMPOUND": "CCN(CCCCNC(=O)NC[C@H](O)[C@@H](O)[C@H](O)[C@H](O)CO)S(=O)(=O)c1ccc(Cl)c(CNC2(c3cnccc3-c3ccccc3OC3CC3)CC2)c1", "RESULT": "< 100 nM"}
{"COMPOUND": "O=C([C@@H](O)[C@@H](O)[C@H](O)[C@@H](O)CO)N(CCCCSc1ccc(Cl)c(COC2(c3cnccc3-c3ccccc3OC3CC3)CC2)c1)C1CCOCC1", "RESULT": "< 100 nM"}

# return EC50 for each item in the list
1. CC(=O)NCCCCN(CCCCSc1ccc(Cl)c(CNC2(c3cnccc3-c3ccccc3OC3CC3)CC2)c1)C(=O)[C@@H](O)[C@@H](O)[C@H](O)[C@@H](O)CO
2. CC(C)(OCc1cc(Cl)ccc1Cl)c1cnccc1-c1ccccc1OC1CC1

Output line:
1: 126 to 1000 nM; 2: < 100 nM

# credit: patent US12084472B2
